All figures here come from patent US20150368300A1.

Molecular target: T1, ENL (489-559), recombinant C-terminal domain of ENL (Homo sapiens (Human), UniProt Q03111)
T1 sequence: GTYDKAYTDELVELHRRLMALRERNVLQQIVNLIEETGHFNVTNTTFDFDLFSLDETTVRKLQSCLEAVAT
Experiment: competitive SPR; peptide pre-incubated with ENL (500 nM), over immobilised Mocr-DOT1L (826-1095)
quantityName: IC50 (µM)
Numeric only. Scale: µM

Below are worked cases with known answers.
• Ac-APISIPLSTV-NH2 [L865A, alanine mutated DOT1L 10mer peptide] = 27.5
• Ac-LPIAIPLSTV-NH2 [S868A, alanine mutated DOT1L 10mer peptide] = 29.1
• Ac-LPISIPASTV-NH2 [L871A, alanine mutated DOT1L 10mer peptide] = 147
• Ac-LPISIPLSAV-NH2 [T873A, alanine mutated DOT1L 10mer peptide] = 0.36
• Ac-LMVKITLDLLSRIP-NH2 [AF4 14 mer peptide, Ac-LMVKITLDLLSRIP-NH2] = 0.43

Proceeding to the next binder to report its IC50.
# IC50 (binder: Ac-LPISIPLSTV-NH2 [DOT1L 10mer peptide, Ac-LPISIPLSTV-NH2 (a.a. 865-874)] ) is 1.34
